Provenance of the data: ChEMBL document CHEMBL3779788

- testSummary: Cytotoxicity against human MCF7 cells at 30 ug/mL by MTT assay
- Format: cell-based
- settings: read-out: INH
observable: cytotoxicity at 30 ug/mL (%)
Report the value in % with no unit label.

Observe how each entry below is paired with its result.
1) O=C1CSC(c2ccc(F)cc2)N1c1ccc(Cl)cc1 (centres undefined) :: 43.7
2) COc1ccc(N2C(=O)CSC2c2ccccc2)cc1 (centres undefined) :: 15.4
3) O=C1CSC(c2ccc(F)cc2)N1c1ccccc1 (centres undefined) :: 33
4) O=C1CSC(c2ccccc2)N1c1ccccc1 (centres undefined) :: 31.7

Could you tell me which cytotoxicity at 30 ug/mL is on file for Cc1ccc(C2SCC(=O)N2c2ccccc2)cc1 (centres undefined) ? 40.7

Could you tell me which cytotoxicity at 30 ug/mL is on file for Cc1ccc(C2SCC(=O)N2c2ccc(F)cc2)cc1 (centres undefined) ? 37.5

Could you tell me which cytotoxicity at 30 ug/mL is on file for O=C1CSC(c2ccccc2)N1c1ccc(Br)cc1 (centres undefined) ? 23.8

Could you tell me which cytotoxicity at 30 ug/mL is on file for COc1ccc(C2SCC(=O)N2c2ccc(Cl)cc2)cc1 (centres undefined) ? 38.6

Could you tell me which cytotoxicity at 30 ug/mL is on file for O=C1CSC(c2ccccc2)N1c1ccc(F)cc1 (centres undefined) ? 7.5

====

- testSummary: Cytotoxicity against human MCF7 cells after 48 and 72 hrs by MTT assay
- Format: cell-based
- settings: MCF7 cells
observable: GI50 at 72 h

Observe how each entry below is paired with its result.
1) O=C1CSC(c2ccc(Cl)cc2)N1c1ccccc1 (stereo not given) :: > 100 µg/mL
2) O=C1CSC(c2ccccc2)N1c1ccc(F)cc1 (stereo not given) :: > 100 µg/mL
3) Cc1ccc(C2SCC(=O)N2c2ccc(F)cc2)cc1 (stereo not given) :: > 100 µg/mL
4) O=C1CSC(c2ccccc2)N1c1ccccc1 (stereo not given) :: > 100 µg/mL
5) O=C1CSC(c2ccc(Br)cc2)N1c1ccccc1 (stereo not given) :: > 100 µg/mL

Could you tell me which GI50 at 72 h is on file for O=C1CSC(c2ccc(F)cc2)N1c1ccccc1 (stereo not given) ? > 100 µg/mL

Could you tell me which GI50 at 72 h is on file for O=C1CSC(c2ccccc2)N1c1ccc(Cl)cc1 (stereo not given) ? > 100 µg/mL

Could you tell me which GI50 at 72 h is on file for CC(=O)O[C@H]1C(=O)[C@@]2(C)[C@H]([C@H](OC(=O)c3ccccc3)[C@]3(O)C[C@H](OC(=O)[C@H](O)[C@@H](NC(=O)c4ccccc4)c4ccccc4)C(C)=C1C3(C)C)[C@]1(OC(C)=O)CO[C@@H]1C[C@@H]2O ? 0.075 µg/mL

Could you tell me which GI50 at 72 h is on file for COc1ccc(N2C(=O)CSC2c2ccccc2)cc1 (stereo not given) ? > 100 µg/mL

Could you tell me which GI50 at 72 h is on file for COc1ccc(C2SCC(=O)N2c2ccccc2)cc1 (stereo not given) ? > 100 µg/mL

====

- Tested on: Mycobacterium bovis BCG str. ATCC 35743
- testSummary: Antitubercular activity against dormant Mycobacterium bovis BCG ATCC 35743 assessed as growth inhibition at 3 ug/mL by NR assay
- Format: functional
Reported growth inhibition (GI) values for a set of compounds
Report the value in % with no unit label.

Observe how each entry below is paired with its result.
1. O=C1CSC(c2ccc(Cl)cc2)N1c1ccc(F)cc1 (stereo unspecified) :: -2.1
2. COc1ccc(C2SCC(=O)N2c2ccc(Cl)cc2)cc1 (stereo unspecified) :: 5.3
3. O=C1CSC(c2ccc([N+](=O)[O-])cc2)N1c1ccccc1 (stereo unspecified) :: 17.8
4. Cc1ccc(N2C(=O)CSC2c2ccc(Cl)cc2)cc1 (stereo unspecified) :: -6.6
5. Cc1ccc(N2C(=O)CSC2c2ccc([N+](=O)[O-])cc2)cc1 (stereo unspecified) :: -2

Form field - read-out: growth inhibition (GI); system: Mycobacterium bovis BCG str. ATCC 35743; submitted item: Cc1ccc(C2SCC(=O)N2c2ccc(F)cc2)cc1 (stereo unspecified) -3

====

- testSummary: Cytotoxicity against human MCF7 cells at 30 ug/mL by MTT assay
- Format: cell-based
- settings: read-out: INH
Would you please tag the item Y when its cytotoxicity at 30 ug/mL is 30% or above, and N when it is below?

1. O=C1CSC(c2ccc(Br)cc2)N1c1ccccc1 (configuration not stated) :: Y
2. O=C1CSC(c2ccc(Cl)cc2)N1c1ccc(Cl)cc1 (configuration not stated) :: N
3. O=C1CSC(c2ccc(Cl)cc2)N1c1ccc(F)cc1 (configuration not stated) :: N
4. O=C1CSC(c2ccc(Cl)cc2)N1c1ccccc1 (configuration not stated) :: Y
5. Cc1ccc(N2C(=O)CSC2c2ccc(Cl)cc2)cc1 (configuration not stated) :: N
6. O=C1CSC(c2ccccc2)N1c1ccc(Cl)cc1 (configuration not stated) :: Y
7. Cc1ccc(C2SCC(=O)N2c2ccc(C)cc2)cc1 (configuration not stated) :: N
8. O=C1CSC(c2ccc(O)cc2)N1c1ccc(Cl)cc1 (configuration not stated) :: Y
9. O=C1CSC(c2ccc([N+](=O)[O-])cc2)N1c1ccccc1 (configuration not stated) :: Y
10. Cc1ccc(N2C(=O)CSC2c2ccc([N+](=O)[O-])cc2)cc1 (configuration not stated) :: Y

# ---- query compound ----
Reported cytotoxicity at 30 ug/mL at or above 30%? COc1ccc(C2SCC(=O)N2c2ccccc2)cc1 (configuration not stated) N

====

- testSummary: Cytotoxicity against human MCF7 cells at 3 ug/mL by MTT assay
- Format: cell-based
- settings: read-out: INH
Reported cytotoxicity at 3 ug/mL values for a set of molecules
Report the value in % with no unit label.

Could you tell me which cytotoxicity at 3 ug/mL is on file for O=C1CSC(c2ccc(Cl)cc2)N1c1ccc(Cl)cc1 (stereo not drawn) ? 14.5

Could you tell me which cytotoxicity at 3 ug/mL is on file for Cc1ccc(N2C(=O)CSC2c2ccc([N+](=O)[O-])cc2)cc1 (stereo not drawn) ? 34.6

Could you tell me which cytotoxicity at 3 ug/mL is on file for O=C1CSC(c2ccccc2)N1c1ccccc1 (stereo not drawn) ? -4.2

Could you tell me which cytotoxicity at 3 ug/mL is on file for O=C1CSC(c2ccccc2)N1c1ccc(Br)cc1 (stereo not drawn) ? -2.6

Could you tell me which cytotoxicity at 3 ug/mL is on file for Cc1ccc(N2C(=O)CSC2c2ccc(Cl)cc2)cc1 (stereo not drawn) ? -0.9

Could you tell me which cytotoxicity at 3 ug/mL is on file for O=C1CSC(c2ccc(O)cc2)N1c1ccc(Cl)cc1 (stereo not drawn) ? 24.9

Could you tell me which cytotoxicity at 3 ug/mL is on file for O=C1CSC(c2ccc(F)cc2)N1c1ccccc1 (stereo not drawn) ? -4.1

Could you tell me which cytotoxicity at 3 ug/mL is on file for Cc1ccc(N2C(=O)CSC2c2ccccc2)cc1 (stereo not drawn) ? -40.6

Could you tell me which cytotoxicity at 3 ug/mL is on file for Cc1ccc(C2SCC(=O)N2c2ccccc2)cc1 (stereo not drawn) ? 0

Could you tell me which cytotoxicity at 3 ug/mL is on file for O=C1CSC(c2ccc(Cl)cc2)N1c1ccc(F)cc1 (stereo not drawn) ? 12.4

Could you tell me which cytotoxicity at 3 ug/mL is on file for COc1ccc(C2SCC(=O)N2c2ccccc2)cc1 (stereo not drawn) ? -2.6

Could you tell me which cytotoxicity at 3 ug/mL is on file for Cc1ccc(C2SCC(=O)N2c2ccc(C)cc2)cc1 (stereo not drawn) ? -9.2

Could you tell me which cytotoxicity at 3 ug/mL is on file for O=C1CSC(c2ccc(Cl)cc2)N1c1ccccc1 (stereo not drawn) ? -1.4

====

- System: MCF7
- testSummary: Cytotoxicity against human MCF7 cells after 48 and 72 hrs by MTT assay
- Type: cell-based
- settings: mcf7, 72 h
observable: GI90

1. Cc1ccc(C2SCC(=O)N2c2ccc(F)cc2)cc1 (centres undefined) :: > 100 µg/mL

Form field - read-out: GI90; system: MCF7; submitted item: CC(=O)O[C@H]1C(=O)[C@@]2(C)[C@H]([C@H](OC(=O)c3ccccc3)[C@]3(O)C[C@H](OC(=O)[C@H](O)[C@@H](NC(=O)c4ccccc4)c4ccccc4)C(C)=C1C3(C)C)[C@]1(OC(C)=O)CO[C@@H]1C[C@@H]2O 0.0039 µg/mL

Form field - read-out: GI90; system: MCF7; submitted item: COc1ccc(C2SCC(=O)N2c2ccccc2)cc1 (centres undefined) > 100 µg/mL

Form field - read-out: GI90; system: MCF7; submitted item: O=C1CSC(c2ccc(Cl)cc2)N1c1ccccc1 (centres undefined) > 100 µg/mL

====

- testSummary: Cytotoxicity against human MCF7 cells at 3 ug/mL by MTT assay
- Assay type: cell-based
- settings: read-out: INH
observable: cytotoxicity at 3 ug/mL (%)
Report the value in % with no unit label.

1) O=C1CSC(c2ccccc2)N1c1ccc(Cl)cc1 (stereo not drawn) :: 11.2
2) COc1ccc(N2C(=O)CSC2c2ccccc2)cc1 (stereo not drawn) :: -10
3) O=C1CSC(c2ccc([N+](=O)[O-])cc2)N1c1ccccc1 (stereo not drawn) :: 47
4) Cc1ccc(C2SCC(=O)N2c2ccc(F)cc2)cc1 (stereo not drawn) :: 22.3
5) COc1ccc(C2SCC(=O)N2c2ccc(Cl)cc2)cc1 (stereo not drawn) :: 0
6) O=C1CSC(c2ccccc2)N1c1ccc(F)cc1 (stereo not drawn) :: -3.9
7) O=C1CSC(c2ccc(F)cc2)N1c1ccc(Cl)cc1 (stereo not drawn) :: 32.2

Could you tell me which cytotoxicity at 3 ug/mL is on file for O=C1CSC(c2ccc(Br)cc2)N1c1ccccc1 (stereo not drawn) ? 22.1
